# testSystem: phosphorylated EGFR (pEGFR) (Homo sapiens)
# Construct: performed to measure phosphorylated EGFR levels using A431 cells (10% FBS); endogenous in cells
# protocol: Detection of phosphorylated EGFR (pEGFR) in EGF-stimulated A431 cells
# measurementParameters: A431 cells (10% FBS), 4 hours incubation, EGF 30 ng/mL 10 minutes, AlphaLISA
Where a name gives a salt, the structure may show the parent alone.
readoutType: IC50 (nM)

compound	readoutType	assayResult
C=C1CCN(c2ccc3ncnc(Nc4ccc(Oc5ccc6c(c5)ncn6C)c(C)c4)c3c2)C1=O	IC50	604
Cc1c(Oc2ccn3ncnc3c2)ccc(Nc2ncnc3ccc(N4CC/C(=C\CN(C)C)C4=O)nc23)c1F [Compound 78, hydrochloride]	IC50	1570

(1) Cc1cc(Nc2ncnc3cnc(N4CC/C(=C\CN(C)C)C4=O)cc23)ccc1Oc1ccc2c(c1)ncn2C
(2) CCc1ccc(Oc2ccc(Nc3ncnc4ccc(N5CC/C(=C\CN(C)C)C5=O)nc34)cc2C)cn1
(3) Cc1ccc(Oc2ccc(Nc3ncnc4ccc(N5CC/C(=C\CN(C)C)C5=O)nc34)cc2C)cn1
Prompt: Arrange these 3 compounds in increasing order of IC50. Response field: labels, in requested order.
Completion: 3, 1, 2
(3: 173 nM, 1: 670 nM, 2: 1880 nM)

====

# testSystem: phosphorylated EGFR (pEGFR) (Homo sapiens, UniProt P00533)
# Construct: performed to measure phosphorylated EGFR levels using A431 cells (10% FBS); endogenous in cells
# Sequence (P00533 25-1210): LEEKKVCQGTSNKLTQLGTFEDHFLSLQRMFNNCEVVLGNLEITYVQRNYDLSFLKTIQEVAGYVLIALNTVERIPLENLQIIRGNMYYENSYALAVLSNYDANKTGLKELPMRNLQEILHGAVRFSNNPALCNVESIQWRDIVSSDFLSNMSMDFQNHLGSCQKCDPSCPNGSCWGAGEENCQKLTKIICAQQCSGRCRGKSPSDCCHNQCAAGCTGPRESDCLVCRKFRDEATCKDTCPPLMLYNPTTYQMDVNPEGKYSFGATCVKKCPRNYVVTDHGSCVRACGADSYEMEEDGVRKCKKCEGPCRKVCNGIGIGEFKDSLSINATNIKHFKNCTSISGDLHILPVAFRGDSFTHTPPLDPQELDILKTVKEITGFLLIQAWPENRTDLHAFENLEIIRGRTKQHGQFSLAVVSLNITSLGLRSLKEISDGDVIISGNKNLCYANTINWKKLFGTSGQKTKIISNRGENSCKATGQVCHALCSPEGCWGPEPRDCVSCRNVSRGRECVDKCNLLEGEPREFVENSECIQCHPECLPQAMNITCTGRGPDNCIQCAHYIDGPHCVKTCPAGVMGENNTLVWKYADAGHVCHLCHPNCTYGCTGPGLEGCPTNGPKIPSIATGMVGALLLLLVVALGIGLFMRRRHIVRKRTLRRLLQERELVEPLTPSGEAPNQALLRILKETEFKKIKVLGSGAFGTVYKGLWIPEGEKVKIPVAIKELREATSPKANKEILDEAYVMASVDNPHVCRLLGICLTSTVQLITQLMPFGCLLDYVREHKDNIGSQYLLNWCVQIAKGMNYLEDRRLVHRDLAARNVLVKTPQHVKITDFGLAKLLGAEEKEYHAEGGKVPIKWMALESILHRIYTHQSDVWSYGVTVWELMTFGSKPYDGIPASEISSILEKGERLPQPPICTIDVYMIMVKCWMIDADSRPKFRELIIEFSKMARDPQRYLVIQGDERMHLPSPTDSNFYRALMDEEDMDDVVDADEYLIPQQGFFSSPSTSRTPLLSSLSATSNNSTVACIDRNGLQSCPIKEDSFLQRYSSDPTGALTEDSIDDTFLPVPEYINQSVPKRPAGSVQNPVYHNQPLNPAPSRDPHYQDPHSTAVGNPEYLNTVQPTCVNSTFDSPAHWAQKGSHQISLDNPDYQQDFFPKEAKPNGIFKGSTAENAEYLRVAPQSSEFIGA
# protocol: Detection of phosphorylated EGFR (pEGFR) in EGF-stimulated A431 cells
# measurementParameters: A431 cells (10% FBS), 4 hours incubation, EGF 30 ng/mL 10 minutes, AlphaLISA
pIC50: −log10 of the molar value.
readoutType: pIC50

For orientation, consider the following solved cases.
molecule	pIC50
C=C1C(=O)N(c2ccc3ncnc(Nc4ccc(Oc5ccc6c(c5)ncn6C)c(C)c4)c3c2)C2CC12 (single isomer, unassigned) [Example S33, Enantiomer # 1]	5.96
Cc1cc(Nc2ncnc3ccc(N4CC/C(=C\CN(C)C)C4=O)nc23)ccc1Oc1cncc(F)c1 [Compound 130]	6.73

(1) Cc1cc(Nc2ncnc3ccc(N4CC(C)/C(=C\CN(C)C)C4=O)nc23)ccc1Oc1ccc2c(c1)ncn2C (single isomer, unassigned; enantiomer 1) [Example S58, Enantiomer # 1]
(2) Cc1cc(Nc2ncnc3cnc(N4CC/C(=C\CN(C)C)C4=O)cc23)ccc1Oc1ccc2c(c1)nnn2C [Compound 101]
Prompt: Exercise: compare 1 and 2 ; which one has the greater pIC50? Answer with the label corresponding to your selection.
Completion: 1

====

# testSystem: Ba/F3 ERBB2 A775_G776insYVMA (Homo sapiens, UniProt P04626, DUP772-775, cells depend on it)
# Sequence (P04626 with tags, fused parts or gaps DUP772-775): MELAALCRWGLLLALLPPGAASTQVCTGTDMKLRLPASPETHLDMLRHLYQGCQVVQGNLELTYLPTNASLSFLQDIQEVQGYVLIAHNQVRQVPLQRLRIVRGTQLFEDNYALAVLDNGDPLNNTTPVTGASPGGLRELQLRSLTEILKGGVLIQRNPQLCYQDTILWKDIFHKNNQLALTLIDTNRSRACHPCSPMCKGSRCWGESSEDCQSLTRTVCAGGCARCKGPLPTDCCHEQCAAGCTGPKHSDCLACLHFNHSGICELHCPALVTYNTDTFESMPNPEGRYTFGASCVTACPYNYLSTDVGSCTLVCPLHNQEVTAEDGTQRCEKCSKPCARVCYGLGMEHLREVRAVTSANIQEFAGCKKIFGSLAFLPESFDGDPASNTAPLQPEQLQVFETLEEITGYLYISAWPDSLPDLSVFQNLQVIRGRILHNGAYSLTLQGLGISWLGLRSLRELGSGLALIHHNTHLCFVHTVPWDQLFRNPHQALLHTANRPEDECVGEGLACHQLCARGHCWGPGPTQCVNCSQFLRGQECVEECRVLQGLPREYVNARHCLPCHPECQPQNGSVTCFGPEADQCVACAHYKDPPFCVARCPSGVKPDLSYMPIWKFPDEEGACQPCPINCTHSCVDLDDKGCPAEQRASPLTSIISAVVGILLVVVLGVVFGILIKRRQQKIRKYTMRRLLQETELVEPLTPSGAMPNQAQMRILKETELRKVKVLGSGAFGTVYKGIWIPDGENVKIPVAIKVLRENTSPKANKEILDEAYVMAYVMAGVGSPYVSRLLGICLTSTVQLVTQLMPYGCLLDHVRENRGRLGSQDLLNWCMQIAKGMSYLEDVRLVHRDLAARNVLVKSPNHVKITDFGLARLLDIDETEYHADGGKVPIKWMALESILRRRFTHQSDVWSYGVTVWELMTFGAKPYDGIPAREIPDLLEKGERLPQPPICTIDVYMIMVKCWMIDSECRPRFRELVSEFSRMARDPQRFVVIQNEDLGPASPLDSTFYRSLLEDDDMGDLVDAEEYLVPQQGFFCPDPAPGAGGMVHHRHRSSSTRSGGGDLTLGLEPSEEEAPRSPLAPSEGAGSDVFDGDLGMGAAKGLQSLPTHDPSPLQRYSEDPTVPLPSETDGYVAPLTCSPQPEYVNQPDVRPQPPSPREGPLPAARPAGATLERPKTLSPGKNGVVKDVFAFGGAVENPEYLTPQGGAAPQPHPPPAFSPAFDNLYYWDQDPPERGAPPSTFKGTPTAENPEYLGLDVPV
# protocol: Cell viability assay, Ba/F3 ERBB2 A775_G776insYVMA
# Format: cell-based, mouse
# measurementParameters: Ba/F3 ERBB2 YVMA cells, cell viability, 72 hours, CellTiter Glo; Table B5; read-out: Ba/F3 ERBB2 YVMA, IC50
# Protocol: Cells were treated with compounds, and cell viability was measured as a metric of kinase inhibition. The Ba/F3 cell line is IL-3-dependent mouse cell line derived from the C3H mouse strain. Ba/F3 cell lines were engineered to express human ERBB2 or EGFR kinases, rendering the cells IL-3 independent. […] Similarly, Ba/F3 cell lines engineered to express EGFR, ERBB2, or ERBB2 mutants were grown, harvested, counted and seeded at 3000 cells per well in 96-well plates. […]
readoutType: GI50 (nM)
Report the figure in nM without appending any unit label.

For orientation, consider the following solved cases.
compound	GI50 / nM
Cc1cc(Nc2c(C#N)cnc3ccc(N4CC/C(=C\CN(C)C)C4=O)nc23)ccc1Oc1ccc2c(c1)ncn2C	34.2
Cc1cc(Nc2ncnc3cnc(N4CC(C)C(=CCN(C)C)C4=O)cc23)ccc1Oc1ccc2c(c1)ncn2C (single isomer, unassigned) [Example S97, Enantiomer #1]	45.6
Cc1cc(Nc2ncnc3cnc(N4CC/C(=C\CN(C)C)C4=O)cc23)ccc1Oc1cncc(F)c1	35.4

Pending compound:
So for `C=C1CCN(c2nc3c(Nc4ccc(Oc5ccc6c(c5)ncn6C)c(C)c4)ncnc3s2)C1=O` , the logged GI50 turned out to be 45

Source: patent US20240116921A1
